Target: Prothrombin (Homo sapiens)
METRIC NAME: IC50 (nM)
Numeric only. Scale: nM

Recorded IC50, per entry:
N=C(N)N1CCCC(C[C@H](NC(=O)CN2C(=O)CN(CCCc3ccccc3)C(=O)[C@@H]2Cc2ccc3ccccc3c2)C(=O)c2nccs2)C1 (stereo partly drawn) ... 45
N=C(N)N1CCCC(C[C@H](NC(=O)CN2C(=O)CN(CCCc3ccccc3)C(=O)[C@@H]2CC2CCCCC2)C(=O)c2nccs2)C1 (stereo partly drawn) ... 430

Short answer on Prothrombin (Homo sapiens) for N=C(N)N1CCCC(C[C@H](NC(=O)CN2C(=O)CN(CCCc3ccccc3)C(=O)[C@@H]2Cc2ccc(Cl)cc2)C(=O)c2nccs2)C1 (stereo partly drawn) , IC50: 170

* * *

Measured inhibition, listed per entry for reference.
Molecular target: Serine protease 1 (Homo sapiens, UniProt P07477)
Sequence (P07477 whole entry): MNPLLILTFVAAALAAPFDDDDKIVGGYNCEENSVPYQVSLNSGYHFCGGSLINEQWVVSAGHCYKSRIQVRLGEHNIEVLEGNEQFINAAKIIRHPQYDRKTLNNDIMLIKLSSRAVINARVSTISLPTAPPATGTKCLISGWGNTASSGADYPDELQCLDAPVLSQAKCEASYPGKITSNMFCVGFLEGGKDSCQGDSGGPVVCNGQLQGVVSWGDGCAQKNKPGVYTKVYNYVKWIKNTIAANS
Experiment: Tested for the inhibition of trypsin at a concentration of 100 uM
Write the value in % as a bare number.

N=C(N)N1CCCC(C[C@H](NC(=O)CN2C(=O)CN(CCCc3ccccc3)C(=O)[C@@H]2Cc2cccnc2)C(=O)c2nccs2)C1 (some centres undefined) ... 40

Note to self: inhibition recorded for N=C(N)N1CCC[C@@H](C[C@H](NC(=O)CN2C(=O)CN(CCCc3ccccc3)C(=O)[C@@H]2Cc2ccccc2)C(=O)c2nccs2)C1 was 80

CC(C)C[C@H]1C(=O)N(CCCc2ccccc2)CC(=O)N1CC(=O)N[C@@H](CC1CCCN(C(=N)N)C1)C(=O)c1nccs1 (some centres undefined) has a reported inhibition of 69

Lab book: inhibition of CCC(C)[C@H]1C(=O)N(CCCc2ccccc2)CC(=O)N1CC(=O)N[C@@H](CC1CCCN(C(=N)N)C1)C(=O)c1nccs1 (some centres undefined) noted as 67

* * *

Target: Prothrombin (Homo sapiens, UniProt P00734)
Each record is given True if its reported Ki is strictly below 80 nM. Records at or above 80 nM are given False.

Use the examples below as a reference point.
N=C(N)N1CCCC(C[C@H](NC(=O)CN2C(=O)CN(CCCc3ccccc3)C(=O)[C@@H]2Cc2ccc3ccccc3c2)C(=O)c2nccs2)C1 (stereo partly specified) ... True
CCC(C)[C@H]1C(=O)N(CCCc2ccccc2)CC(=O)N1CC(=O)N[C@@H](CC1CCCN(C(=N)N)C1)C(=O)c1nccs1 (stereo partly specified) ... False
N=C(N)N1CCCC(C[C@H](NC(=O)CN2C(=O)CN(CCCc3ccccc3)C(=O)[C@@H]2Cc2ccc(Cl)cc2)C(=O)c2nccs2)C1 (stereo partly specified) ... True
CCCC[C@H]1C(=O)N(CCCc2ccccc2)CC(=O)N1CC(=O)N[C@@H](CC1CCCN(C(=N)N)C1)C(=O)c1nccs1 (stereo partly specified) ... False
CC(C)C[C@H]1C(=O)N(CCCc2ccccc2)CC(=O)N1CC(=O)N[C@@H](CC1CCCN(C(=N)N)C1)C(=O)c1nccs1 (stereo partly specified) ... False

Query molecule follows.
is_below(Ki, 80 nM) for N=C(N)N1CCCC(C[C@H](NC(=O)CN2C(=O)CN(CCCc3ccccc3)C(=O)[C@@H]2CC2CCCCC2)C(=O)c2nccs2)C1 (stereo partly specified) ? True

* * *

Biological target: Serine protease 1 (Homo sapiens, UniProt P07477)
METRIC NAME: IC50

Examples with answers:
N=C(N)N1CCCC(C[C@H](NC(=O)CN2C(=O)CN(CCCc3ccccc3)C(=O)[C@@H]2CCc2ccccc2)C(=O)c2nccs2)C1 (stereo partly specified) ... 29 µM
N=C(N)N1CCCC(C[C@H](NC(=O)CN2C(=O)CN(Cc3ccccc3)C(=O)[C@@H]2Cc2ccc3ccccc3c2)C(=O)c2nccs2)C1 (stereo partly specified) ... 11.1 µM
N=C(N)N1CCCC(C[C@H](NC(=O)CN2C(=O)CN(CCCc3ccccc3)C(=O)[C@@H]2Cc2ccc(Cl)cc2)C(=O)c2nccs2)C1 (stereo partly specified) ... 33.4 µM

Form field, IC50 with Serine protease 1 (Homo sapiens, UniProt P07477), item N=C(N)NCCC[C@H](NC(=O)CN1C(=O)CN(CCCc2ccccc2)C(=O)[C@@H]1Cc1ccccc1)C(=O)c1nccs1 : 0.09 µM

Lab entry: Serine protease 1 (Homo sapiens, UniProt P07477) assay, compound N=C(N)N1CCCC(C[C@H](NC(=O)CN2C(=O)CN(CCCc3ccccc3)C(=O)[C@@H]2CC2CCCCC2)C(=O)c2nccs2)C1 (stereo partly specified) , IC50 = 18.5 µM

The value of IC50 recorded for N=C(N)N1CCCC(C[C@H](NC(=O)CN2CC(=O)N(CCCc3ccccc3)CC2=O)C(=O)c2nccs2)C1 (stereo partly specified) when tested on Serine protease 1 (Homo sapiens, UniProt P07477) reads 91.2 µM
